test system: MDA-MB-231; assay: NCI tumour cell line growth inhibition, 48 h
Calls of active or inactive are those of the source. Cut-off read from the data, not from the text of the source: active = GI50 up to about 1.1 µM and inactive = higher.
Outcomes: true (1) (active), false (0) (inactive)

# COMPOUND, CLASS NAME
data = [
    ("COc1cc([C@@H]2c3cc4c(cc3[C@@H](NCCNCCO)[C@H]3COC(=O)[C@H]23)OCO4)cc(OC)c1O", "false (0)"),
    ("Cc1cccc(NS(=O)(=O)c2ccc(/N=N/c3c(O)c(C(=O)O)cc4ccccc34)cc2)n1", "false (0)"),
    ("O=C1C=CC(O)C2C1CC13SSC4(CC5C(=O)C=CC(O)C5N4C1=O)C(=O)N23 (stereo not given)", "true (1)"),
    ("CC(=O)CC1CCC(=O)/C=C/C(=O)OC(CC(C)=O)CCC(=O)/C=C/C(=O)O1 (stereo not given)", "false (0)"),
    ("CCSc1nc(N)c2c(-c3ccc(OC)c(OC)c3)c3c(nc2n1)CCCC3", "false (0)"),
]

----------
tested on: MCF7; assay: NCI tumour cell line growth inhibition, 48 h
The source made the active and inactive calls. Rule as the data show it: active = GI50 up to about 1.1 µM and inactive = higher.

# COMPOUND, TGT, GI50
measured = [
    ("CCOP(=O)(OCC)OC1CC(n2cnc3c(N(CC)CC)ncnc32)OC1CO[Si](C)(C)C(C)(C)C (stereo not given)", "MCF7", "21.8 µM (inactive)"),
    ("O=c1c2ccc(Cl)cc2oc2c(CNc3ccc(S(=O)(=O)Nc4ncccn4)cc3)cccc12", "MCF7", "> 100 µM (inactive)"),
    ("Cc1nn(C(=O)Cc2ccccc2)c2c1C(c1ccc(/C=C/c3ccccc3)cc1)SC(=N)N2 (stereo not given)", "MCF7", "> 100 µM (inactive)"),
    ("O=C(O)CSc1ncccc1[N+](=O)[O-]", "MCF7", "> 100 µM (inactive)"),
    ("CCOC(=O)CC1Nc2ccccc2C12CCc1c([nH]c3ccccc13)C2C(=O)OCC (stereo not given)", "MCF7", "13.1 µM (inactive)"),
    ("Nc1[nH]c(=S)[nH]c(=O)c1/N=N/c1c(Br)cc(S(N)(=O)=O)cc1Br", "MCF7", "> 100 µM (inactive)"),
    ("COCOc1ccc(C(=O)C(C)c2ccc(OCOC)cc2OCOC)c(O)c1 (stereo not given)", "MCF7", "68.2 µM (inactive)"),
    ("CN(C)CCNC(=O)c1ccc2nc3c(nc2c1)C(=O)c1ccccc1-3", "MCF7", "27.9 µM (inactive)"),
    ("CCCNC(=O)CCC(C)[C@H]1CCC2C3C(C[C@H](OC(C)=O)[C@@]21C)[C@@]1(C)CCC2(C[C@H]1C[C@H]3OC(C)=O)OOC1(CCC(C)CC1)OO2 (stereo not given in full)", "MCF7", "34.7 µM (inactive)"),
    ("COc1cc(/C=C2\\C(=O)N(Cc3ccccc3)C(c3ccccc3)S2(=O)=O)cc(OC)c1OC (stereo not given)", "MCF7", "26.3 µM (inactive)"),
    ("CNC(=O)OCc1nc(SSC(C)(C)C)n(C)c1COC(=O)NC", "MCF7", "4.3 µM (inactive)"),
    ("CO[C@H]1C[C@](C)(O)Cc2cc3c(c(O)c21)C(=O)c1c(O)cc2c(c1C3=O)O[C@@H]1O[C@@]2(C)[C@H](O)[C@@H](N(C)C)[C@@H]1O", "MCF7", "0.103 µM (active)"),
    ("COc1cc2c(cc1OC)OC(c1c(OC)ccc(OC)c1O)CC2 (stereo not given)", "MCF7", "78.2 µM (inactive)"),
    ("COc1ccc2c(c1)CN1C(=N2)CSC1c1c(Cl)cccc1[N+](=O)[O-] (stereo not given)", "MCF7", "14.4 µM (inactive)"),
    ("COc1ccc(N/N=C2\\C3=C(CCC(C)(C)O3)C(=O)c3ccccc32)cc1", "MCF7", "12.4 µM (inactive)"),
    ("CN(C)Cc1cc(C=O)cc(CN(C)C)c1O", "MCF7", "> 100 µM (inactive)"),
    ("COc1ccc(C2SCC(=O)N2c2ccc(-n3c(-c4ccccc4)nc4ccccc4c3=O)cc2)cc1 (stereo not given)", "MCF7", "98.4 µM (inactive)"),
    ("O=C(NO)c1ccc(OCc2ccccc2)cc1", "MCF7", "55.8 µM (inactive)"),
    ("CC(C)Cn1cnc2c(NCC(C)O)nc3ccccc3c21 (stereo not given)", "MCF7", "> 100 µM (inactive)"),
    ("COP(=O)(OC)C(Cc1cn(C(C)=O)c2ccccc12)C(=O)O (stereo not given)", "MCF7", "8.26 µM (inactive)"),
]

----------
test system: A549; assay: NCI tumour cell line growth inhibition, 48 h
Activity calls are given as the source filed them. No stated cut-off is given here; in the data, active = GI50 up to about 1.1 µM and inactive = higher.
Classes used: 1 for active, 0 for inactive

# COMPOUND, CLASS NAME
measured = [
    ("CCN(CC)CCNC(=O)c1cc2cc(NC(=O)c3cc4cc(N)ccc4[nH]3)ccc2[nH]1", 0),
    ("O=C(O)CCSC(=O)Nc1cccc2ccccc12", 0),
    ("COc1cc2c3c(n(C)c(=O)c2cc1OC)-c1cc2c(cc1/C3=C\\CCCCl)OCO2", 0),
    ("COC(=O)c1cccc2cccc(C(=O)Nc3ccc(Cl)cc3)c12", 0),
    ("COc1ccc([C@@]23Oc4cc(OC)cc(OC)c4[C@]2(O)[C@H](O)[C@H](C(=O)N(C)C)[C@H]3c2ccccc2)cc1 [ROCAGLAMIDE]", 1),
    ("COc1ccc2c3c1C(=O)CCC3CO2 (stereo not given)", 0),
    ("O=c1cnn(C2OC(CO)C(O)C2O)c(=S)[nH]1 (stereo not given)", 0),
    ("O=C(O)c1cccc(S(=O)(=O)NN2C(=O)CSC2c2ccccc2)c1 (stereo not given)", 0),
    ("COC(CNC(=O)C(C)NC(=O)/C=C/c1ccccc1)OC (stereo not given)", 0),
    ("CC(=O)N1N=C(c2c(O)ccc3ccccc23)CC1C(=O)c1ccco1 (stereo not given)", 0),
]

----------
test system: HOP-62; assay: NCI tumour cell line growth inhibition, 48 h
The source made the active and inactive calls. Rule as the data show it: active = GI50 up to about 1.1 µM and inactive = higher.
Outcome codes: T = active, F = inactive

# COMPOUND, CLASS NAME
data = [
    ("CC(C)(C)OC(=O)[N+](=N)C(=O)C1CCC(=O)N1C(=O)OCc1ccccc1 (stereo not given)", "F"),
    ("Nc1ccc(C(=O)NN2C(=O)C(Cl)C2c2ccccc2Cl)cc1 (stereo not given)", "F"),
    ("Cc1cccc(C(C)C)c1NC(=O)C(=O)CC(=O)c1c(C)[n+]([O-])c2ccccc2[n+]1[O-]", "F"),
    ("c1ccc(-c2nn(-c3ccccc3)[n+](-c3ccccc3)n2)cc1", "F"),
    ("CCO/C=C\\C12CCCC1NC(c1ccccc1)(c1ccccc1)O2 (stereo not given)", "F"),
    ("CC(O)(C(=O)N(O)c1ccc(Cl)cc1)c1ccc(Cl)cc1 (stereo not given)", "F"),
    ("COc1ccc([C@H]2CC(=O)N3CCCC3N2)cc1 (stereo not given in full)", "F"),
    ("CSCCC(C(=O)O)N(C)C (stereo not given)", "F"),
    ("CC1(C)CC2C(/C1=N/O)C1(C)CCCC2(C)C1O (stereo not given)", "F"),
    ("CC(=O)O[C@H]1C[C@]2(O)[C@@H]3CC[C@@H]4C[C@@H](O)CC[C@]4(C)[C@H]3CC[C@]2(C)[C@H]1C1=CC(=O)OC1", "T"),
    ("Cc1ccc2c(c1)-c1c(C#N)c(N)nc(-c3ccc(Cl)cc3)c1CCS2(=O)=O", "F"),
    ("C=C/C(C)=C/[C@H](C)C(=O)C[C@H](O)CC1CC(=O)NC(=O)C1", "F"),
    ("COc1ccc(-c2nnc3n(Cc4ccccc4)c4ccccc4n3c2=O)cc1", "F"),
    ("CC(=O)NCCCCCCNC(C)=O [HEXAMETHYLENEBISACETAMIDE]", "F"),
    ("O=c1[nH]c(-c2ccc(-c3nc4cc([N+](=O)[O-])ccc4c(=O)[nH]3)cc2)nc2cc([N+](=O)[O-])ccc12", "F"),
    ("COc1ccc(/C=C\\c2cc(OC)c(OC(C)=O)c(OC)c2)cc1", "F"),
    ("COC(=O)c1onc(C2OC(C)(C)OC2C(O)COC(c2ccccc2)(c2ccccc2)c2ccccc2)c1C(=O)OC (stereo not given)", "F"),
    ("Cc1cccc(Nc2nc(NNC(=O)Cc3ccccc3)nc(NNC(=O)c3ccncc3)n2)c1", "F"),
    ("N#CC(=N)c1ncn(CCO)c1NC(=O)C(F)(F)F", "F"),
    ("C=C1c2[nH]c3c([N+](=O)[O-])c(OC)ccc3c2CCN1C(C)=O", "F"),
    ("CC[C@H]1C=CCC[C@@]2(C[C@@H]3CC[C@H]4[C@H](C(=O)OCCCCCCCCCCCCCCCC(=O)N(CCCN)C[C@@H](O)CCN)[C@]5(CCC[C@@H](C)O5)NC(=[N+]34)N2)O1", "F"),
    ("O=C1c2cccc([N+](=O)[O-])c2C(=O)N1c1ncn[nH]1", "F"),
    ("C=C1CC(Cn2ccc(=O)[nH]c2=O)(c2ccc(Cl)cc2)OC1=O (stereo not given)", "F"),
    ("O=C1CSC(c2ccccc2O)N1c1nc2cc3sc(N4C(=O)CSC4c4ccccc4O)nc3cc2s1 (stereo not given)", "F"),
    ("O=C1c2ccccc2C(=O)c2c1ccc1c3ccccc3n(Cc3ccccc3)c21", "F"),
    ("NC(=S)N/N=C1\\CCc2ccccc2C1", "F"),
    ("COC(=O)C(NC(=O)CSc1nnc(COc2ccc(Cl)cc2)n1-c1ccccc1)C(C)C (stereo not given)", "F"),
    ("CC(=O)N1C(Nc2cnc3ccccc3c2)CCN1c1ccccc1 (stereo not given)", "F"),
    ("CC(C)Cn1cnc2c(NCC(C)O)nc3ccccc3c21 (stereo not given)", "F"),
    ("Cn1c(=O)c2c(nc3n2CCC(=O)N3CCCCl)n(C)c1=O", "F"),
    ("C=C(C)[C@H]1CC(=O)/C(C)=C\\CC/C(C)=C/CC[C@@]2(C)O[C@@H]2C1", "F"),
    ("COc1cc(/C=C/C2=C(C#N)C(=O)OC2(C)C)ccc1O", "F"),
    ("COc1ccc2c(=O)c3ccoc3n(CC=C(C)C)c2c1", "F"),
    ("O=C(c1ccccc1)C(c1ccccc1)C1(O)C(=O)Nc2c(Cl)ccc(Cl)c21 (stereo not given)", "F"),
    ("O=[N+]([O-])c1ccc2nc3ccc([N+](=O)[O-])cn3c2c1", "F"),
    ("O=C(NO)c1ccc(OCc2ccccc2)cc1", "F"),
    ("Clc1ccc(OCc2nnc(CCCCCCCCc3nnc(COc4ccc(Cl)cc4Cl)n3Nc3ccccc3)n2Nc2ccccc2)c(Cl)c1", "F"),
    ("CCn1ncc2c1nc(-c1ccccc1)c[n+]2[O-]", "F"),
    ("COc1ccc(-c2c(N)n(-c3cc(OC)cc(OC)c3)c(=O)c3cc([N+](=O)[O-])ccc23)cc1", "F"),
    ("O=C(c1cc(=O)c2ccc(O)cc2o1)c1ccc(Cl)cc1Cl", "F"),
]

Source listed as ChEMBL document CHEMBL1201862.
